Just for reference, the supplement of paper PMC4862054 is where these values come from.

system: MCF-10A; experiment: drug sensitivity score (DSS), CellTiter-Glo (DSS (AUC-based score)); higher = stronger drug effect (viability inhibition or cytotoxicity); extreme values may be limits of the assay; details: incubation time: 72 h

# structure_smiles, target_or_test_system, drug sensitivity score
data = [
    ("CC(=O)c1c(C)c2cnc(Nc3ccc(N4CCNCC4)cn3)nc2n(C2CCCC2)c1=O", "MCF-10A", 3.99),
    ("O=NN(CCCl)C(=O)NCCCl", "MCF-10A", 0),
    ("COc1cc(F)c(F)c(Nc2ccc(I)cc2F)c1NS(=O)(=O)C1(C[C@H](O)CO)CC1", "MCF-10A", 23.6),
    ("CC1=C2C[C@H]3[C@@H](CC=C4C[C@@H](O)CC[C@@]43C)[C@@H]2CC[C@]12O[C@@H]1C[C@H](C)CN[C@H]1[C@H]2C", "MCF-10A", 0),
    ("CC(=O)N(O)CCCCCNC(=O)CCC(=O)N(O)CCCCCNC(=O)CCC(=O)N(O)CCCCCN", "MCF-10A", 0),
]

---

Reported normalised viability is given for each of the following molecules.
system: SK-BR-3; assay: normalised viability (% of control), CellTiter-Blue; higher = more viable cells (about 100 = DMSO control); settings: 10 nM; incubation time: 72 h

# molecule, normalised viability / %
measured = [
    ("Oc1ncnc2[nH]ncc12 [Allopurinol]", 100),
    ("CC(C)(C)c1cnc(CSc2cnc(NC(=O)C3CCNCC3)s2)o1 [SNS-032]", 98.4),
    ("Cn1cc(C2=Nc3cc(NC(=O)C(N)C4CCCCC4)cc4c3C2=CNNC4=O)cn1 (stereo unspecified)", 81.8),
    ("C[C@]1(O)C[C@@H](c2nc(-c3ccc4ccc(-c5ccccc5)nc4c3)c3c(N)nccn32)C1 [OSI-906]", 88.7),
    ("Nc1ncn([C@@H]2O[C@H](CO)[C@@H](O)[C@H]2O)c(=O)n1 [Azacitidine]", 92),
    ("CC(=O)c1c(C)c2cnc(Nc3ccc(N4CCNCC4)cn3)nc2n(C2CCCC2)c1=O", 100),
]

---

test system: HDQ-P1; assay: normalised viability (% of control), CellTiter-Blue; higher = more viable cells (about 100 = DMSO control); settings: incubation time: 72 h
As shown below, each of these molecules has a reported normalised viability value.
readout_type: normalised viability (%)

# molecule, reading
measured = [
    ("C[C@]1(O)C[C@@H](c2nc(-c3ccc4ccc(-c5ccccc5)nc4c3)c3c(N)nccn32)C1 [OSI-906] (10000 nM)", 32.4),
    ("CC(=O)c1c(C)c2cnc(Nc3ccc(N4CCNCC4)cn3)nc2n(C2CCCC2)c1=O (10000 nM)", 93.5),
    ("O=P(O)(O)C(O)(Cn1ccnc1)P(=O)(O)O [Zoledronic acid] (10000 nM)", 106),
    ("O=NN(CCCl)C(=O)NCCCl [Carmustine] (10000 nM)", 114),
    ("CC(C)(C)c1cnc(CSc2cnc(NC(=O)C3CCNCC3)s2)o1 [SNS-032] (10000 nM)", 12.7),
]

---

drug sensitivity score listing for selected compounds.
test system: BT-474; experiment: drug sensitivity score (DSS), CellTiter-Blue viability (DSS (AUC-based score)); higher = stronger viability inhibition; extreme values may be limits of the assay; conditions: incubation time: 72 h

# compound, drug sensitivity score
measured = [
    ("O=C1CN2Cc3c(ccc(Cl)c3Cl)N=C2N1 [Anagrelide]", 0),
    ("Oc1ncnc2[nH]ncc12 [Allopurinol]", 0),
    ("CC[C@@H]1C(=O)OC[C@@H]1Cc1cncn1C [Pilocarpine]", 0),
    ("CC1=C2C[C@H]3[C@@H](CC=C4C[C@@H](O)CC[C@@]43C)[C@@H]2CC[C@]12O[C@@H]1C[C@H](C)CN[C@H]1[C@H]2C [Cyclopamine]", 0),
    ("CC(C)(C)c1cnc(CSc2cnc(NC(=O)C3CCNCC3)s2)o1 [SNS-032]", 15.2),
]
